Data provenance is patent US20210079074A1.

assay target: T1, recombinant MS4A4A soluble polypeptide JS5
T1 construct: also called JS5.His
test name: ELISA, 0.11 ug/ml antibody
readout name: ELISA OD
Numbers only.

Solved cases (3 shown):
binder: anti-MS4A4A antibody 4A-352 (antibody, V domains shown, full human IgG) VH: QVQLVQSGSELKKPGASVKVSCKASGYIFTSYGLSWVRQAPGQGLEWMGWINTYSGVPTYAQGFTGRFVFSLDTSVSTAYLQISSLKAEDTAVYYCARTLADYWGQGTLVTVSS VL: DVVMTQSPLSLPVTLGQPASISCKSSRSLLYSGGKTYLSWFQQRPGQSPRRLIYLVSKLDSGVPDRFSGSGSGTDFTLKISRVEAEDVGVYYCWQGIDFHQTFGGGTKVEIK
recorded number: 0.655
--
binder: anti-MS4A4A antibody 4A-332 (antibody, human IgG1, V domains shown, humanized 4A-21; human IgG1/kappa) VH: QVQLVQSGSELKKPGASVKVSCKASGYIFTSYGLSWVRQAPGQGLEWMGWINTYSGVPTYAQGFTGRFVFSLDTSVSTAYLQISSLKAEDTAVYYCARSLVDYWGQGTLVTVSS VL: DVVMTQSPLSLPVTLGQPASISCKSSQSLLYSDGKTYLSWFQQRPGQSPRRLIYLVSKLDSGVPDRFSGSGSGTDFTLKISRVEAEDVGVYYCWQGIDFHQTFGGGTKVEIK
recorded number: 0.677
--
binder: anti-MS4A4A antibody 4A-376 (antibody, V domains shown, full human IgG) VH: QVQLVQSGSELKKPGASVKVSCKASGYIFTSYGLSWVRQAPGQGLEWMGWINTYSGVPTYAQGFTGRFVFSLDTSVSTAYLQISSLKAEDTAVYYCARSMADYWGQGTLVTVSS VL: DVVMTQSPLSLPVTLGQPASISCKSSRSLLYSDGKTYLSWFQQRPGQSPRRLIYLVSKLDSGVPDRFSGSGSGTDFTLKISRVEAEDVGVYYCWQGIDFHQTFGGGTKVEIK
recorded number: 0.83

Record anti-MS4A4A antibody 4A-302 (antibody, human IgG1, V domains shown, human IgG1/kappa) VH: QVQLVQSGAEVKKPGASVKVSCKASGYTFTNYWMQWVRQAPGQGLEWMGATHPGHGDTRYAQKFQGRVTMTRDTSTSTVYMELSSLRSEDTAVYYCAREEVYYGFRSYWYFDVWGRGTLVTVSS VL: EIVLTQSPATLSLSPGERATLSCRASESVDNYGVSFMNWYQQKPGQAPRLLIYGASNQGSGIPARFSGSGSGTDFTLTISSLEPEDFAVYYCQQSKEVPPTFGGGTKVEIK , field ELISA OD: 0.091
